Target: T1, TNFR1 (Homo sapiens, UniProt P19438)
T1 chain: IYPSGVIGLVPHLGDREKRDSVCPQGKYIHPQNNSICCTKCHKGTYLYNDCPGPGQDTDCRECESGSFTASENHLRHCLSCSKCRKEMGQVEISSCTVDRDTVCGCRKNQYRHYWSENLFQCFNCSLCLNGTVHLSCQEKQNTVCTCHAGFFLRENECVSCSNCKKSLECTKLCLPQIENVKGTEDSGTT
Assay: yeast display SC50
Would you mind telling me the reported apparent Kd (screen) of each entry?

Prompt: Report measured apparent Kd (screen); entry is K72N (designed binder) MTLQELLREEALRRAEAEAFRYALELLAEKFPEQKEYLLDLAEEIESQIRSLSGVDVEDVRKFLDKEWAWVNELLAEHPAELAEVEAARAARLAELRAEVEAKVAA
Response: 0.539 nM

Prompt: Report measured apparent Kd (screen); entry is E36N (designed binder) MTLQELLREEALRRAEAEAFRYALELLAEKFPEQKNYLLDLAEEIESQIRSLSGVDVEDVRKFLDKEWAWVKELLAEHPAELAEVEAARAARLAELRAEVEAKVAA
Response: 1.27 nM

Prompt: Report measured apparent Kd (screen); entry is V104H (designed binder) MTLQELLREEALRRAEAEAFRYALELLAEKFPEQKEYLLDLAEEIESQIRSLSGVDVEDVRKFLDKEWAWVKELLAEHPAELAEVEAARAARLAELRAEVEAKHAA
Response: 1.16 nM

Prompt: Report measured apparent Kd (screen); entry is L7E (designed binder) MTLQELEREEALRRAEAEAFRYALELLAEKFPEQKEYLLDLAEEIESQIRSLSGVDVEDVRKFLDKEWAWVKELLAEHPAELAEVEAARAARLAELRAEVEAKVAA
Response: 15.2 nM

Prompt: Report measured apparent Kd (screen); entry is I45E (designed binder) MTLQELLREEALRRAEAEAFRYALELLAEKFPEQKEYLLDLAEEEESQIRSLSGVDVEDVRKFLDKEWAWVKELLAEHPAELAEVEAARAARLAELRAEVEAKVAA
Response: 1.05 nM

Prompt: Report measured apparent Kd (screen); entry is E58K (designed binder) MTLQELLREEALRRAEAEAFRYALELLAEKFPEQKEYLLDLAEEIESQIRSLSGVDVKDVRKFLDKEWAWVKELLAEHPAELAEVEAARAARLAELRAEVEAKVAA
Response: 0.49 nM

Prompt: Report measured apparent Kd (screen); entry is L7Q (designed binder) MTLQELQREEALRRAEAEAFRYALELLAEKFPEQKEYLLDLAEEIESQIRSLSGVDVEDVRKFLDKEWAWVKELLAEHPAELAEVEAARAARLAELRAEVEAKVAA
Response: 8.56 nM

Prompt: Report measured apparent Kd (screen); entry is A23L (designed binder) MTLQELLREEALRRAEAEAFRYLLELLAEKFPEQKEYLLDLAEEIESQIRSLSGVDVEDVRKFLDKEWAWVKELLAEHPAELAEVEAARAARLAELRAEVEAKVAA
Response: 0.593 nM

All figures here come from paper PMC12416549.
